# Target or system: L-lactate dehydrogenase (Plasmodium falciparum (isolate CDC / Honduras)) (UniProt Q27743)
# Sequence (Q27743 whole entry, looked up): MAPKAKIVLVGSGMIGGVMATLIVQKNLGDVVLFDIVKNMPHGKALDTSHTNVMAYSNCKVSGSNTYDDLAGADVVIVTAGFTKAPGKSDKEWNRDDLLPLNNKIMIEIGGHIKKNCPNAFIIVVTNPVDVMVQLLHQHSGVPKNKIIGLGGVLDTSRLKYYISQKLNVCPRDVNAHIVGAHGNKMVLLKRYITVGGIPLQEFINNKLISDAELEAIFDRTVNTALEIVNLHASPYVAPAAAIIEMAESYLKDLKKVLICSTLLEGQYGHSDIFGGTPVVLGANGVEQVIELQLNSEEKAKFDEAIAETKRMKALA
# Assay notes: PfLDH activity inhibition – cell lysate, 3D7 strain, counter-screen for P. falciparum growth inhibition project (AID 2304);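 note: 0% = vehicle and 100% = reference inhibitor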
# Experimental setup: P. falciparum 3D7 crude extract, LDH APAD/NBT absorbance; at 2 µM; stronger effect = higher value
Recorded endpoint: inhibition (%)

[
  {
    "Molecule": "CSc1ccc2ccccc2c1CNCCCCCCNCc1c(SC)ccc2ccccc12",
    "Recorded number": 3
  },
  {
    "Molecule": "CCc1cccc(NC(=O)/C=C/c2ccc3c(c2)CN(C)CC3)c1",
    "Recorded number": -1
  },
  {
    "Molecule": "Cc1ccc2c(NN=CC=Cc3ccccc3)cc(C)nc2c1",
    "Recorded number": 6
  },
  {
    "Molecule": "O=c1cc(NCCCNCc2scc(I)c2I)[nH]c2ccccc12",
    "Recorded number": -1
  },
  {
    "Molecule": "CC(C)Sc1nc2c(c(=O)n1Cc1ccco1)C1(CCCC1)Cc1ccccc1-2",
    "Recorded number": 4
  },
  {
    "Molecule": "CC(C)(C)c1cc(C(=O)N2CCN(c3ccc(C(F)(F)F)cn3)CC2)n(Cc2ccc(F)cc2)n1",
    "Recorded number": -1
  },
  {
    "Molecule": "Cc1onc(-c2c(Cl)cccc2Cl)c1C(=O)N1CCc2cc3nccc(N4CCN5CCC[C@H]5C4)c3cc21",
    "Recorded number": -5
  },
  {
    "Molecule": "O=C(NC1CCN(Cc2ccccc2)CC1)c1cccc(Nc2nc(-c3ccccc3)cs2)c1",
    "Recorded number": 3
  },
  {
    "Molecule": "O=S(=O)(NC1CCN(c2ccnc3cc(Cl)ccc23)C1)c1ccc(C(F)(F)F)cc1 (stereo not drawn)",
    "Recorded number": 2
  },
  {
    "Molecule": "COc1ccc2ncc(F)c(CCN3C[C@H](CNCc4ccccc4)[C@H](O)C3)c2n1",
    "Recorded number": 8
  },
  {
    "Molecule": "Cc1ccc(Nc2nc(C)cc(N3CCN(c4ccccc4)CC3)n2)cc1",
    "Recorded number": 3
  },
  {
    "Molecule": "CCN(CCCN1CCCCC1)c1cc(C)nc(Nc2ccc(C)cc2C(F)(F)F)n1",
    "Recorded number": -2
  },
  {
    "Molecule": "N#Cc1cccc(Nc2ncc3c(-c4cccc(NC(=O)Cc5cccc(Cl)c5)c4)c[nH]c3n2)c1",
    "Recorded number": -2
  },
  {
    "Molecule": "O=S(=O)(NCCN1CCCC1)c1ccc(-c2cccc(CNCCc3cccs3)c2)s1",
    "Recorded number": -2
  },
  {
    "Molecule": "CCN(CCCN1CCCCC1)c1cc(C)nc(Nc2ccc(C)c(Br)c2)n1",
    "Recorded number": -8
  },
  {
    "Molecule": "COc1ccc(S(=O)(=O)NCCC2CCN(CCCCCNC(=O)C=Cc3ccc(Cl)c(Cl)c3)CC2)cc1",
    "Recorded number": 5
  },
  {
    "Molecule": "Nc1c(I)cc(C(=O)Nc2ccc3nc4c(c(N)c3c2)CCCC4)cc1I",
    "Recorded number": 2
  },
  {
    "Molecule": "CC(Cc1ccc(CNC(=O)NCc2ccc(CC(C)NCCc3cccc(Cl)c3)cc2)cc1)NCCc1cccc(Cl)c1 (stereo not drawn)",
    "Recorded number": -4
  },
  {
    "Molecule": "N#Cc1ccc2[nH]cc(-c3cn4cc(SC5CCCC5)ccc4n3)c2c1",
    "Recorded number": 3
  },
  {
    "Molecule": "Cc1cc(NC(=O)NCCN2CCC(NS(=O)(=O)c3ccccc3F)CC2)c2ccccc2n1",
    "Recorded number": -4
  },
  {
    "Molecule": "CO/C(=C\\C=C\\c1cc2cc(Cl)c(Cl)cc2[nH]1)C(=O)NCCCCN1CCN(c2ccccc2OC)CC1",
    "Recorded number": -1
  },
  {
    "Molecule": "CCCCCCc1cc(OC)c(OC)cc1C(C)Nc1ccnc2cc(Cl)ccc12 (stereo not drawn)",
    "Recorded number": -4
  },
  {
    "Molecule": "CC(=O)Nc1cc(C(=O)Nc2ccc(C3=NCCN3)cc2)ccc1C(=O)Nc1ccc(C2=NCCN2)cc1",
    "Recorded number": -3
  },
  {
    "Molecule": "COc1cc(NC(=O)/C=C/c2cccc3ccoc23)ccc1OCCN(C(C)C)C(C)C",
    "Recorded number": 2
  },
  {
    "Molecule": "C[C@@H]1CN(c2cnn(C/C=C/c3ccc(NC(=O)c4ccc(Cl)cc4)cc3)c(=O)c2Cl)C[C@H](C)N1",
    "Recorded number": -2
  },
  {
    "Molecule": "CCCCCCCC1=NN2C(=N)C(=Cc3cc(Br)c(OCc4ccc(F)cc4)c(OCC)c3)C(=O)N=C2S1",
    "Recorded number": 0
  },
  {
    "Molecule": "O=C(/C=C/c1ccc(Cl)c(Cl)c1)NCCCCCCN1CCN(C(=O)Nc2ccc(F)c(Cl)c2)CC1",
    "Recorded number": -7
  },
  {
    "Molecule": "COc1ccc(C2=C(Nc3ccc4oc5ccccc5c4c3)c3ccccc3C2=O)cc1",
    "Recorded number": 5
  },
  {
    "Molecule": "CCOC(=O)c1ccc(NC(=O)Nc2cccc(-c3ccc(-c4nc5ccc(C(F)(F)F)cc5[nH]4)cc3)c2)cc1",
    "Recorded number": -4
  },
  {
    "Molecule": "Cn1c(/C=C/C(=O)NC2CCC(CCN3CCc4ccc(C#N)cc4CC3)CC2)cc2ccccc21 (stereo not drawn)",
    "Recorded number": -1
  },
  {
    "Molecule": "Cc1cc(C(=O)CN2C(=O)NC3(CCCc4ccccc43)C2=O)c(C)n1Cc1ccco1 (stereo not drawn)",
    "Recorded number": 4
  },
  {
    "Molecule": "c1ccc(C(c2ccccc2)N2CCC(NCc3ccc(OCCCN4CCCCC4)cc3)CC2)cc1",
    "Recorded number": 4
  },
  {
    "Molecule": "c1cncc(-c2cccc(CNc3nccc(Nc4ccc(OCCN5CCOCC5)cc4)n3)c2)c1",
    "Recorded number": -2
  },
  {
    "Molecule": "CNC(=O)Cc1ccc(C(=O)Nc2cccc(-c3cccc(-c4nc5c(C)cccc5[nH]4)c3)c2)cc1",
    "Recorded number": 0
  },
  {
    "Molecule": "O=[N+]([O-])c1ccc2ncnc(Nc3ccc(F)c(Cl)c3)c2c1",
    "Recorded number": 0
  },
  {
    "Molecule": "CCC(C)NS(=O)(=O)c1ccc2nc(Nc3ccc(C)c(Cl)c3)n([C@H](C)C(C)(C)C)c2c1 (stereo partly drawn)",
    "Recorded number": -5
  },
  {
    "Molecule": "COc1ccc2c(c1)CC(NCc1ccc(-c3ccc4nc[nH]c4c3)cc1)C2 (stereo not drawn)",
    "Recorded number": 1
  },
  {
    "Molecule": "COc1cccc(NC(=O)Nc2ccc(C)c(-c3ccc(C(=O)Nc4ccncc4)cc3)c2)c1",
    "Recorded number": 1
  }
]

###

# Assay notes: human hepatoma cell viability loss – ATP luminescence, cytotoxicity control for P. falciparum antimalarial project, primary screen (AID 2303);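 note: 0% = DMSO wells and 100% = digitonin-killed cells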
# Experimental setup: HepG2 viability, 24-48 h, at 10 µM, stronger effect = higher value
Exam item: assign yes to entries whose inhibition is below 20% and no to entries at or above 20%. Note that a value of exactly 20% receives no.

[
  {
    "Molecule": "CCOC(=O)c1cc(C(=O)OC)c2ccccn12",
    "Discrete label": "no"
  },
  {
    "Molecule": "Cc1cc(NCCCCCCN)nc(Nc2ccc(Cl)cc2)n1",
    "Discrete label": "no"
  },
  {
    "Molecule": "CO/C(=C\\C=C\\c1cc2cc(Cl)c(Cl)cc2[nH]1)C(=O)NCCCN1CCC(c2ccccc2)CC1",
    "Discrete label": "no"
  },
  {
    "Molecule": "Cc1cc2nc(-c3ccc(/C=C/C(=O)NC4CCN(Cc5ccccc5)CC4)cc3)[nH]c2cc1C",
    "Discrete label": "yes"
  },
  {
    "Molecule": "COc1csc2cc(Br)ccc12",
    "Discrete label": "yes"
  },
  {
    "Molecule": "O=C(Nc1ccc(-c2ccc(-c3nc4ccccc4[nH]3)s2)cc1)Nc1ccsc1",
    "Discrete label": "no"
  },
  {
    "Molecule": "COc1cccc(CNc2ncc(-c3ccsc3)c(-c3nccs3)n2)c1",
    "Discrete label": "yes"
  },
  {
    "Molecule": "CN(C)c1ccc(CN2CCC(CNC(=O)c3cc(-c4ccccc4F)cs3)C2)cc1 (stereo not given)",
    "Discrete label": "no"
  },
  {
    "Molecule": "CN(C)CCNCc1ccc(-c2ccc(-c3nc4ccccc4[nH]3)s2)cc1",
    "Discrete label": "yes"
  },
  {
    "Molecule": "COc1cccc(CNC[C@@H](O)[C@H](Cc2ccccc2)NC(=O)c2cc(C(C)C)cc(N3CCCC3=O)c2)c1",
    "Discrete label": "yes"
  }
]
